# experimental target: CDK6/D3 (Homo sapiens, UniProt Q00534)
# Sequence (Q00534 whole entry): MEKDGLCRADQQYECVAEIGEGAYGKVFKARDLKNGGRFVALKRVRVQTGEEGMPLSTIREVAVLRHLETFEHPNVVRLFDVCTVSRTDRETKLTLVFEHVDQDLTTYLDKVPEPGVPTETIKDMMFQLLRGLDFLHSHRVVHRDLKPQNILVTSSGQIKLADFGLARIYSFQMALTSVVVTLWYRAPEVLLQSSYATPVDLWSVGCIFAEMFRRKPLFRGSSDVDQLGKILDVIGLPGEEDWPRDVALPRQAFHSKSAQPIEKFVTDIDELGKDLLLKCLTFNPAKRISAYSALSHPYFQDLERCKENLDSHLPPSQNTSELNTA
# Sequence (P30281 whole entry partner): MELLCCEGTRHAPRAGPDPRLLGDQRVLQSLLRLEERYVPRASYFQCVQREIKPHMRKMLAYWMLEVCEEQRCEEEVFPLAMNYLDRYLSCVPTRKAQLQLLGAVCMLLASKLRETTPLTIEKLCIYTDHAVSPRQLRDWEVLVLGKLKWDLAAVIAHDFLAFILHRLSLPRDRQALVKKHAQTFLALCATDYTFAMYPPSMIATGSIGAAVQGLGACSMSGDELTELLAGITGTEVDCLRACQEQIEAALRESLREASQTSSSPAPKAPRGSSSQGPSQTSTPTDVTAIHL
# test: ADP Glo Kinase assay CDK6/D3
# Type: biochemical
# stated conditions: CDK6D3; compound at 10 μM; read-out: residual activity (%) at 10 μM CDK6D3
property: remaining activity at 10 µM (%)
Numeric only. Scale: %

Here is how some molecules turned out for remaining activity at 10 µM.
| molecule | remaining activity at 10 µM, % |
| --- | --- |
| Cc1cnc(NC2CCCC(N)C2)nc1-c1cnc2ccc(Nc3cncnc3)cn12 (centres unmarked) [Compound 96] | 90 |
| Cc1cnc(NC2CCCC(N)C2)nc1-c1cnc2ccc(-c3ccccc3)cn12 (centres unmarked) [Compound 94] | 45 |
| Fc1cnc(NC2CCN(CC3CC3)CC2)nc1-c1cnc2ccccn12 [Compound 22] | 42 |

Inquiry: Please report the measured remaining activity at 10 µM for Cc1cnc(N[C@H]2CC[C@H](O)CC2)nc1-c1cnc2ccccn12 [Compound 107]
Reply text: 54

Inquiry: Please report the measured remaining activity at 10 µM for N[C@H]1CC[C@H](Nc2ncc(Cl)c(-c3cnc4c(-c5ccccc5)cc(C(F)(F)F)cn34)n2)CC1 [Compound 85]
Reply text: 43

----------
# experimental target: CDKs and other kinases (Homo sapiens)
# Construct: other: CDK1B; residual activity (%) at 10 μM CDK1B; compound at 10 μM
# test: Radiometric kinase assay (Eurofins Pharma Discovery or Reaction Biology Corporation Kinase Profiler)
# Type: biochemical
# stated conditions: CDK1B; read-out: CDK inhibition, Ki (μM) CDK1B
property: Ki (µM)
Numeric only. Scale: µM

Here is how some compounds turned out for Ki.
| compound | property | scale unit | value |
| --- | --- | --- | --- |
| N[C@H]1CC[C@H](Nc2ncc(F)c(-c3cnc4ccc(C(F)(F)F)cn34)n2)CC1 | Ki | µM | 0.084 |
| N[C@H]1CC[C@H](Nc2ncc(F)c(-c3cnc4ccccn34)n2)CC1 | Ki | µM | 0.077 |
| COC(=O)CN[C@H]1CC[C@H](Nc2ncc(F)c(-c3cnc4ccccn34)n2)CC1 | Ki | µM | 0.07 |

Inquiry: Please report the measured Ki for Cc1cnc(N[C@H]2CC[C@H](N)CC2)nc1-c1cnc2ccc(Nc3cncc(F)c3)cn12
Reply text: 1.26

Inquiry: Please report the measured Ki for Fc1cnc(N[C@H]2CC[C@H](NC3CCOCC3)CC2)nc1-c1cnc2ccc(-c3ccccc3)cn12
Reply text: 0.074

Inquiry: Please report the measured Ki for Fc1cnc(NC2CCNCC2)nc1-c1cnc2ccccn12
Reply text: 0.479

Inquiry: Please report the measured Ki for Cc1cnc(N[C@H]2CC[C@H](N)CC2)nc1-c1cnc2ccc(-c3ccncc3)cn12
Reply text: 0.17

Inquiry: Please report the measured Ki for Cc1cnc(NC2CCC(N(C)C)CC2)nc1-c1cnc2ccc(Nc3cccnc3)cn12 (stereo not shown)
Reply text: 1.5

Inquiry: Please report the measured Ki for CNC1CCC(Nc2ncc(C)c(-c3cnc4ccc(Nc5cncnc5)cn34)n2)CC1 (stereo not shown)
Reply text: 1.26

Inquiry: Please report the measured Ki for Cc1cnc(N[C@H]2CC[C@H](N)CC2)nc1-c1cnc2ccc(C(F)(F)F)cn12
Reply text: 0.266

----------
# experimental target: CDK6/D3 (Homo sapiens)
# test: ADP Glo Kinase assay CDK6/D3
# Type: biochemical
# stated conditions: CDK6D3; compound at 10 μM; read-out: residual activity (%) at 10 μM CDK6D3
# Method: Eurofins Pharma Discovery or Reaction Biology Corporation Kinase Profiler services were used to measure inhibition of CDKs and other kinases by radiometric assay. Inhibition of CDK4/D1, CDK6/D3 and CDK9/T1 were also determined in-house using ADP Glo Kinase assays (Promega Corporation, Madison, USA). […] Luminescence was measured using an EnVision Multilabel plate reader (PerkinElmer, Buckinghamshire, UK). […]
Known remaining activity at 10 µM of a selection of compounds
Numeric only. Scale: %

Here is how some compounds turned out for remaining activity at 10 µM.
| compound | scale unit | value |
| --- | --- | --- |
| Cc1cnc(NC2CCC(NCC(F)(F)F)CC2)nc1-c1cnc2ccc(Nc3cncnc3)cn12 (stereo not drawn) | % | 45 |
| N[C@H]1CC[C@H](Nc2ncc(-c3ccccc3)c(-c3cnc4ccc(-c5ccccc5)cn34)n2)CC1 | % | 54 |

Now for another entry.
Inquiry: Please report the measured remaining activity at 10 µM for Cc1cnc(NC2CCC(N(C)C)CC2)nc1-c1cnc2ccc(-c3ccccc3)cn12 (stereo not drawn)
Reply text: 39

----------
Known Ki of a selection of compounds
# experimental target: CDK9/T1 (Homo sapiens, UniProt P50750)
# Sequence (P50750 whole entry): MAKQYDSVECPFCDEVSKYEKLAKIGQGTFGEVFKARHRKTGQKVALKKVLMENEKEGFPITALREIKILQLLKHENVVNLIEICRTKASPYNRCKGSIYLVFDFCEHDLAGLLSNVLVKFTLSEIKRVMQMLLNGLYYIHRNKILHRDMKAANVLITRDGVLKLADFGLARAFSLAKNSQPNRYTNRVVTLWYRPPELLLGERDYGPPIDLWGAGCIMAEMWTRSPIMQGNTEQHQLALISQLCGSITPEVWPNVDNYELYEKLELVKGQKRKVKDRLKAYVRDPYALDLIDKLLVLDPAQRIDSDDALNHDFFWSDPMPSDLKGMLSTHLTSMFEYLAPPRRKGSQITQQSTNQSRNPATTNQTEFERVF
# Sequence (O60563 whole entry partner): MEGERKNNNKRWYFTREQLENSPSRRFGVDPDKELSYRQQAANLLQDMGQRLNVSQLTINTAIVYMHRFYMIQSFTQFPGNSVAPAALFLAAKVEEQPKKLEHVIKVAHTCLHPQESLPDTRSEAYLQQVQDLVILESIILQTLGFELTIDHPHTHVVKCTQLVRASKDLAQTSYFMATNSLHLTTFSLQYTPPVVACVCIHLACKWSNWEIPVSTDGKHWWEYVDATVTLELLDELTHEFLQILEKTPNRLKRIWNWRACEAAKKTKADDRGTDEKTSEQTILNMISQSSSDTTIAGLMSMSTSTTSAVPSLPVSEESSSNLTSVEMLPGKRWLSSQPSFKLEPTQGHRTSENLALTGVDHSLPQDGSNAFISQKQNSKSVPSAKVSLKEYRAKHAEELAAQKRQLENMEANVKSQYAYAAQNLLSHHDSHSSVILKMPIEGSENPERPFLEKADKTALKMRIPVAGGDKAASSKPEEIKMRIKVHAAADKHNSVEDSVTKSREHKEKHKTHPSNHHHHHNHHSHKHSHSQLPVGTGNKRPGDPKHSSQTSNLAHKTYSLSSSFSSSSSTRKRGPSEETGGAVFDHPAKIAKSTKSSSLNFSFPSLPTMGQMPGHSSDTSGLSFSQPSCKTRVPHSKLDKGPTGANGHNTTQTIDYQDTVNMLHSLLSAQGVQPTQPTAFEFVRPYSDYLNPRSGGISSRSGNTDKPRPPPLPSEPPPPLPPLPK
# test: ADP Glo Kinase assay CDK9/T1
# Format: biochemical
# stated conditions: CDK9T1; read-out: CDK inhibition, Ki (μM) CDK9T1

| compound | experimental target | Ki |
| --- | --- | --- |
| Cc1cnc(NC2CCC(F)(F)CC2)nc1-c1cnc2ccccn12 [Compound 156] | CDK9/T1 (Homo sapiens, UniProt P50750) | > 5 µM |

Inquiry: Please report the measured Ki for Cc1cnc(N[C@H]2CC[C@H](C)CC2)nc1-c1cnc2ccc(-c3ccccc3)cn12 [Compound 151]
Reply text: > 5 µM

Inquiry: Please report the measured Ki for Cc1cnc(N[C@]23C[C@@]4(C)C[C@](C)(C[C@](O)(C4)C2)C3)nc1-c1cnc2ccc(-c3ccccc3)cn12 [Compound 100]
Reply text: > 5 µM

----------
Known GI50 of a selection of compounds
# Tested on: leukemia cell lines
# test: Resazurin cell viability assay on leukemia cell lines (72 h growth inhibition, GI50)
# Format: cell-based
# stated conditions: Homo sapiens, MV4-11 cells

Here is how some compounds turned out for GI50.
| compound | GI50 |
| --- | --- |
| Cc1cnc(NC2CCCC(N)C2)nc1-c1cnc2ccc(Nc3cncnc3)cn12 (centres unmarked) | > 10 µM |
| Cc1cnc(N[C@]23C[C@@]4(C)C[C@](C)(C[C@](O)(C4)C2)C3)nc1-c1cnc2ccc(Nc3cccnc3)cn12 | > 10 µM |
| N[C@H]1CC[C@H](Nc2ncc(F)c(-c3cnc4cc(-c5ccccc5)ccn34)n2)CC1 | < 0.001 µM |
| Fc1cnc(N[C@H]2CC[C@H](N3CCC3)CC2)nc1-c1cnc2ccc(-c3ccccc3)cn12 | < 0.001 µM |
| Cc1cnc(N[C@H]2CC[C@H](NS(C)(=O)=O)CC2)nc1-c1cnc2ccc(Nc3cncnc3)cn12 | > 5 µM |

Inquiry: Please report the measured GI50 for Cc1cnc(NC2CCOCC2)nc1-c1cnc2ccc(Nc3cccnc3)cn12
Reply text: > 10 µM

Inquiry: Please report the measured GI50 for Cc1cnc(N[C@H]2CC[C@H](N(CC(N)=O)CC(N)=O)CC2)nc1-c1cnc2ccc(Nc3cncnc3)cn12
Reply text: > 10 µM

Inquiry: Please report the measured GI50 for N[C@H]1CC[C@H](Nc2ncc(F)c(-c3cnc4cc(-c5cccnc5)ccn34)n2)CC1
Reply text: < 0.001 µM

----------
# experimental target: CDKs and other kinases (Homo sapiens)
# Construct: other: CDK2A; residual activity (%) at 10 μM CDK2A; compound at 10 μM
# test: Radiometric kinase assay (Eurofins Pharma Discovery or Reaction Biology Corporation Kinase Profiler)
# Assay type: biochemical
# stated conditions: CDK2A; read-out: CDK inhibition, Ki (μM) CDK2A
Flag rule - Ki less than 0.5 µM flags Met; the remaining entries get Not met.

Reference set (6 entries):
| compound | experimental target | class assignment |
| --- | --- | --- |
| Cc1cnc(N[C@H]2CC[C@H](N)CC2)nc1-c1cnc2ccc(Nc3cccnc3)cn12 [Compound 34] | CDKs and other kinases (Homo sapiens) | Met |
| CS(=O)(=O)N[C@H]1CC[C@H](Nc2ncc(Cl)c(-c3cnc4c(Br)cc(C(F)(F)F)cn34)n2)CC1 [Compound 18] | CDKs and other kinases (Homo sapiens) | Met |
| Cc1cnc(N[C@H]2CC[C@H](N)CC2)nc1-c1cnc2ccc(NCc3ccc(F)cc3)cn12 [Compound 32] | CDKs and other kinases (Homo sapiens) | Not met |
| N[C@H]1CC[C@H](Nc2ncc(Cl)c(-c3cnc4ccc(-c5cncnc5)cn34)n2)CC1 [Compound 38] | CDKs and other kinases (Homo sapiens) | Not met |
| N[C@H]1CC[C@H](Nc2ncc(Cl)c(-c3cnc4ccc(-c5ncccc5F)cn34)n2)CC1 [Compound 40] | CDKs and other kinases (Homo sapiens) | Not met |
| COC(=O)CN[C@H]1CC[C@H](Nc2ncc(F)c(-c3cnc4ccccn34)n2)CC1 [Compound 15] | CDKs and other kinases (Homo sapiens) | Met |

Inquiry: Does the reported Ki of Cc1cnc(NC2CCC(N(C)C)CC2)nc1-c1cnc2ccc(Nc3cncnc3)cn12 (stereo not shown) [Compound 99] stay below 0.5 µM?
Reply text: Met

Inquiry: Does the reported Ki of Cc1cnc(N[C@H]2CC[C@H](O)CC2)nc1-c1cnc2ccc(Nc3cncnc3)cn12 [Compound 108] stay below 0.5 µM?
Reply text: Met

Inquiry: Does the reported Ki of Cc1cnc(N[C@H]2CC[C@H](N3CC3)CC2)nc1-c1cnc2cc(Nc3cncnc3)ccn12 [Compound 119] stay below 0.5 µM?
Reply text: Met

Inquiry: Does the reported Ki of Cc1cnc(N[C@H]2CC[C@H](N)CC2)nc1-c1cnc2ccc(-c3cncnc3)cn12 [Compound 39] stay below 0.5 µM?
Reply text: Not met

Inquiry: Does the reported Ki of N[C@H]1CC[C@H](Nc2ncc(Cl)c(-c3cnc4ccc(-c5ccccc5)cn34)n2)CC1 [Compound 79] stay below 0.5 µM?
Reply text: Met

Inquiry: Does the reported Ki of Cc1cnc(N[C@H]2CC[C@H](N)CC2)nc1-c1cnc2ccc(-c3c(C)noc3C)cn12 [Compound 59] stay below 0.5 µM?
Reply text: Not met

Inquiry: Does the reported Ki of Cc1cnc(N[C@H]2CC[C@H](N)CC2)nc1-c1cnc2ccc(-c3cccnc3)cn12 [Compound 29] stay below 0.5 µM?
Reply text: Not met

Inquiry: Does the reported Ki of Cc1cnc(N[C@H]2CC[C@H](N)CC2)nc1-c1cnc2ccc(C(F)(F)F)cn12 [Compound 9] stay below 0.5 µM?
Reply text: Met

Inquiry: Does the reported Ki of N[C@H]1CC[C@H](Nc2ncc(F)c(-c3cnc4ccc(-c5ccccc5)cn34)n2)CC1 [Compound 5] stay below 0.5 µM?
Reply text: Met

Inquiry: Does the reported Ki of Cc1cnc(N[C@H]2CC[C@H](N)CC2)nc1-c1cnc2ccc(Nc3ccccn3)cn12 [Compound 128] stay below 0.5 µM?
Reply text: Not met
